- assayTarget: RAC-beta serine/threonine-protein kinase (Homo sapiens)
- measurementDescription: Inhibition of Akt2 phosphorylation by HTRF assay
API: label(entry) gives Satisfied if the entry's IC50 is strictly smaller than 300 nM; on equality or larger values it gives Not satisfied.

>  <smilesInput>
CN1CCN(c2nccc3cc(-c4ccccc4)c(-c4ccc(CN5CCC(c6nnc(-c7ccccn7)[nH]6)CC5)cc4)nc23)CC1

>  <class>
Not satisfied

$$$$
>  <smilesInput>
O[C@@H]1CN(c2ncc3cc(-c4ccccc4)c(-c4ccc(CN5CCC(c6nnc(-c7ccccn7)[nH]6)CC5)cc4)nc3n2)CCN1

>  <class>
Satisfied

$$$$
>  <smilesInput>
CN1CC(N2CCN(c3ncc4cc(-c5ccccc5)c(-c5ccc(CN6CCC(c7nnc(-c8ccccn8)[nH]7)CC6)cc5)nc4n3)CC2)C1

>  <class>
Satisfied

$$$$
>  <smilesInput>
CN1CCN(c2nccc3nc(-c4ccc(CN5CCC(c6nnc(-c7ccccn7)[nH]6)CC5)cc4)c(-c4ccccc4)cc23)CC1

>  <class>
Not satisfied

$$$$
>  <smilesInput>
c1ccc(-c2cc3cnc(-n4ccnc4)nc3nc2-c2ccc(CN3CCC(c4nnc(-c5ccccn5)[nH]4)CC3)cc2)cc1

>  <class>
Satisfied

$$$$

With those in mind, consider the next compound.
**Q:** Field: below-cutoff. Rule: recorded IC50 strictly less than 300 nM. Subject: "CN(C)C1CCN(c2ncc3cc(-c4ccccc4)c(-c4ccc(CN5CCC(c6nnc(-c7ccccn7)[nH]6)CC5)cc4)nc3n2)CC1"
**A:** Satisfied

====

- assayTarget: RAC-beta serine/threonine-protein kinase (Homo sapiens, UniProt P31751)
- Sequence (P31751 whole entry): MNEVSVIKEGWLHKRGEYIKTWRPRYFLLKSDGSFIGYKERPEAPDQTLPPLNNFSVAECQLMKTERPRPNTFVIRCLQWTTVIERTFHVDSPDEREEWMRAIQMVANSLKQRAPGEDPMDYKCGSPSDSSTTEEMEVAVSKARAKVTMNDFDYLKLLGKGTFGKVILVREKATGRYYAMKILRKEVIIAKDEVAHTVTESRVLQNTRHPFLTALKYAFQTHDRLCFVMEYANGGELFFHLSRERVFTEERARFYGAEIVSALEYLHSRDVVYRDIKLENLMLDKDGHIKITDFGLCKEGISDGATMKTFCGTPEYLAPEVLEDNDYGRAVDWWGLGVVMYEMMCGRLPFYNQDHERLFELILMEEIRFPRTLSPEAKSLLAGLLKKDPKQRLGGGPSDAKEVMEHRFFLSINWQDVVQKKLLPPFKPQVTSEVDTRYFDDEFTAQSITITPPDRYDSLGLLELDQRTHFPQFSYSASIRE
- measurementDescription: Inhibition of Akt2 phosphorylation by HTRF assay
API: label(entry) gives rule met if the entry's IC50 is strictly smaller than 0.04 µM; on equality or larger values it gives rule not met.

>  <smilesInput>
C[C@@H]1CN(c2ncc3cc(-c4ccccc4)c(-c4ccc(CN5CCC(c6nnc(-c7ccccn7)[nH]6)CC5)cc4)nc3n2)C[C@H](C)O1

>  <class>
rule not met

$$$$
>  <smilesInput>
CN1CCN(c2ncc3cc(-c4ccccc4)c(-c4ccc(CN5CCC(c6nnc(-c7ccccn7)[nH]6)CC5)cc4)nc3n2)CC1

>  <class>
rule met

$$$$
>  <smilesInput>
OCCN1CCN(c2ncc3cc(-c4ccccc4)c(-c4ccc(CN5CCC(c6nnc(-c7ccccn7)[nH]6)CC5)cc4)nc3n2)CC1

>  <class>
rule met

$$$$
>  <smilesInput>
c1ccc(-c2cc3cnc(N4CCCCC4)nc3nc2-c2ccc(CN3CCC(c4nnc(-c5ccccn5)[nH]4)CC3)cc2)cc1

>  <class>
rule not met

$$$$
>  <smilesInput>
C[C@@H]1CN(c2ncc3cc(-c4ccccc4)c(-c4ccc(CN5CCC(c6nnc(-c7ccccn7)[nH]6)CC5)cc4)nc3n2)CCN1

>  <class>
rule met

$$$$
>  <smilesInput>
CC(=O)N1CCN(c2ncc3cc(-c4ccccc4)c(-c4ccc(CN5CCC(c6nnc(-c7ccccn7)[nH]6)CC5)cc4)nc3n2)CC1

>  <class>
rule met

$$$$

**Q:** Field: below-cutoff. Rule: recorded IC50 strictly less than 0.04 µM. Subject: "OC1CCN(c2ncc3cc(-c4ccccc4)c(-c4ccc(CN5CCC(c6nnc(-c7ccccn7)[nH]6)CC5)cc4)nc3n2)CC1"
**A:** rule not met

====

- assayTarget: RAC-alpha serine/threonine-protein kinase (Homo sapiens)
- Sequence (P31749 whole entry): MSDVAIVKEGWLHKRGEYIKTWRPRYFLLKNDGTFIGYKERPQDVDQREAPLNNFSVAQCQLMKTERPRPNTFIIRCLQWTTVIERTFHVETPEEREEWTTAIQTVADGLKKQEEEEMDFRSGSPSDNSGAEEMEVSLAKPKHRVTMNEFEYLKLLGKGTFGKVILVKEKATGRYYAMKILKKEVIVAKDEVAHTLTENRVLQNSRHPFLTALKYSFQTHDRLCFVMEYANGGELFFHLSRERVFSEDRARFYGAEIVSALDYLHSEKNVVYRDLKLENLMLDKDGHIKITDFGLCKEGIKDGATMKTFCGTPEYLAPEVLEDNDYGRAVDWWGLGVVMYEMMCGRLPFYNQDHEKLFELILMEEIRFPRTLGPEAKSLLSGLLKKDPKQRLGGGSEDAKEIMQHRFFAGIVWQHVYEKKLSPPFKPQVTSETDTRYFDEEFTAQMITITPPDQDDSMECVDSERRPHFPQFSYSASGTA
- measurementDescription: Inhibition of Akt1 phosphorylation in human by C33a cells by IPKA assay
- Type: cell-based
Catalogue of IC50 values
Enter the number, and then the unit.

# count of solved cases: 5
>  <smilesInput>
CN(C)CC(=O)N1CCN(c2ncc3cc(-c4ccccc4)c(-c4ccc(CN5CCC(c6nnc(-c7ccccn7)[nH]6)CC5)cc4)nc3n2)CC1

>  <assayTarget>
RAC-alpha serine/threonine-protein kinase (Homo sapiens)

>  <result>
3 nM

$$$$
>  <smilesInput>
C[C@@H]1CN(c2ncc3cc(-c4ccccc4)c(-c4ccc(CN5CCC(c6nnc(-c7ccccn7)[nH]6)CC5)cc4)nc3n2)C[C@H](C)N1

>  <assayTarget>
RAC-alpha serine/threonine-protein kinase (Homo sapiens)

>  <result>
46 nM

$$$$
>  <smilesInput>
c1ccc(-c2cc3cnc(-n4ccnc4)nc3nc2-c2ccc(CN3CCC(c4nnc(-c5ccccn5)[nH]4)CC3)cc2)cc1

>  <assayTarget>
RAC-alpha serine/threonine-protein kinase (Homo sapiens)

>  <result>
35 nM

$$$$
>  <smilesInput>
OC1CCN(c2ncc3cc(-c4ccccc4)c(-c4ccc(CN5CCC(c6nnc(-c7ccccn7)[nH]6)CC5)cc4)nc3n2)CC1

>  <assayTarget>
RAC-alpha serine/threonine-protein kinase (Homo sapiens)

>  <result>
17 nM

$$$$
>  <smilesInput>
CN(C)CCNc1ncc2cc(-c3ccccc3)c(-c3ccc(CN4CCC(c5nnc(-c6ccccn6)[nH]5)CC4)cc3)nc2n1

>  <assayTarget>
RAC-alpha serine/threonine-protein kinase (Homo sapiens)

>  <result>
208 nM

$$$$

Form field IC50, entry "C[C@@H]1CN[C@@H](C)CN1c1ncc2cc(-c3ccccc3)c(-c3ccc(CN4CCC(c5nnc(-c6ccccn6)[nH]5)CC4)cc3)nc2n1" : 194 nM

Form field IC50, entry "CN1CC(N2CCN(c3ncc4cc(-c5ccccc5)c(-c5ccc(CN6CCC(c7nnc(-c8ccccn8)[nH]7)CC6)cc5)nc4n3)CC2)C1" : 6 nM

Form field IC50, entry "c1ccc(-c2cc3cnc(N4CCCCC4)nc3nc2-c2ccc(CN3CCC(c4nnc(-c5ccccn5)[nH]4)CC3)cc2)cc1" : 36 nM

Form field IC50, entry "CS(=O)(=O)N1CCN(c2ncc3cc(-c4ccccc4)c(-c4ccc(CN5CCC(c6nnc(-c7ccccn7)[nH]6)CC5)cc4)nc3n2)CC1" : 20 nM

Form field IC50, entry "CSc1ncc2cc(-c3ccccc3)c(-c3ccc(CNCCC(=O)c4ccccc4N)cc3)nc2n1" : 78 nM
